- MEASUREMENT_PROTOCOL: Pharmacokinetic study in mice (plasma and liver)
- Format: in vivo
- EXPERIMENTAL_CONDITIONS: male, C57BL/6J, mouse, plasma; C57/B16J mice, 10 mg/kg oral, 0.5 hr post dose
- Protocol: Pharmacokinetic (PK) screening studies were carried out by methods known to one of ordinary skill in the art. […] Both plasma and liver samples were stored at −20° C. before they were analyzed by LC/MS/MS. The plasma AUC were calculated using linear and log trapezoidal summations. The liver-to-plasma (L/P) ratio was calculated by dividing the total concentration in liver with plasma concentrations for respective mice. […]
OBSERVABLE: concentration at 0.5 h

Note down concentration at 0.5 h recorded for CC[C@@H](COC)Oc1cc(Oc2ccc(S(C)(=O)=O)nc2)cc(C(=O)Nc2nc(CP3(=O)OCCCO3)cs2)c1 [Example 1]
604 nM

###

- TARGET_OF_ASSAY: CYP450 3A4 (Homo sapiens, UniProt P08684)
- Sequence (P08684 whole entry): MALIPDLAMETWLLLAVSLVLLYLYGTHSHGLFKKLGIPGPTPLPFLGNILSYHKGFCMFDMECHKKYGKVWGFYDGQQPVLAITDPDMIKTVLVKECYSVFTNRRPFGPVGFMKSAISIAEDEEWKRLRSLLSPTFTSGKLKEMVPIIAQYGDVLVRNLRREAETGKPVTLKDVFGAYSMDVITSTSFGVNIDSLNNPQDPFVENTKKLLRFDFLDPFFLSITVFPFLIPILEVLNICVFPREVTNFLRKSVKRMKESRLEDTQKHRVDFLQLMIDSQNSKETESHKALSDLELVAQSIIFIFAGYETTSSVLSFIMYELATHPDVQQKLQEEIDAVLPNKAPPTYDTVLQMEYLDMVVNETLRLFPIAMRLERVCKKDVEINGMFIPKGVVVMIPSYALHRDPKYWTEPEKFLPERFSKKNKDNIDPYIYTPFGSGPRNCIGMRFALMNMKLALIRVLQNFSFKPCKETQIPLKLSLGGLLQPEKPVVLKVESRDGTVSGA
- MEASUREMENT_PROTOCOL: CYP450 3A4 inhibition
- Type: in vitro ADME
pIC50: −log10 of the molar value.
OBSERVABLE: pIC50

Please tell me the measured pIC50 for CC[C@@H](COC)Oc1cc(Oc2ccc(S(C)(=O)=O)nc2)cc(C(=O)Nc2nc(CP3(=O)OCCCO3)cs2)c1 [Example 1] ; system: CYP450 3A4 (Homo sapiens, UniProt P08684).
< 4.40

###

- MEASUREMENT_PROTOCOL: Aqueous solubility
- Assay type: physicochemical
- EXPERIMENTAL_CONDITIONS: aqueous medium (not further specified)
OBSERVABLE: solubility (µg/mL)
One number for each entry, in µg/mL.

Annotate the molecule `CC[C@@H](COC)Oc1cc(Oc2ccc(S(C)(=O)=O)nc2)cc(C(=O)Nc2nc(CP3(=O)OCCCO3)cs2)c1` with its measured solubility.
74

###

- MEASUREMENT_PROTOCOL: Pharmacokinetic study in mice (plasma and liver)
- Type: in vivo
- EXPERIMENTAL_CONDITIONS: male, C57BL/6J, mouse, plasma; C57/B16J mice, 10 mg/kg oral, 1 hr post dose; read-out: Plasma (1 hr)
- Description: Pharmacokinetic (PK) screening studies were carried out by methods known to one of ordinary skill in the art. […] Both plasma and liver samples were stored at −20° C. before they were analyzed by LC/MS/MS. The plasma AUC were calculated using linear and log trapezoidal summations. The liver-to-plasma (L/P) ratio was calculated by dividing the total concentration in liver with plasma concentrations for respective mice. […]
OBSERVABLE: concentration at 1 h (nM)
Give bare numbers, in nM.

Please look at this compound and report its concentration at 1 h: CC[C@@H](COC)Oc1cc(Oc2ccc(S(C)(=O)=O)nc2)cc(C(=O)Nc2nc(CP3(=O)OCCCO3)cs2)c1 [Example 1]
631

###

- TARGET_OF_ASSAY: Mouse Glucokinase (Mus musculus, UniProt P52792)
- Sequence (P52792 whole entry): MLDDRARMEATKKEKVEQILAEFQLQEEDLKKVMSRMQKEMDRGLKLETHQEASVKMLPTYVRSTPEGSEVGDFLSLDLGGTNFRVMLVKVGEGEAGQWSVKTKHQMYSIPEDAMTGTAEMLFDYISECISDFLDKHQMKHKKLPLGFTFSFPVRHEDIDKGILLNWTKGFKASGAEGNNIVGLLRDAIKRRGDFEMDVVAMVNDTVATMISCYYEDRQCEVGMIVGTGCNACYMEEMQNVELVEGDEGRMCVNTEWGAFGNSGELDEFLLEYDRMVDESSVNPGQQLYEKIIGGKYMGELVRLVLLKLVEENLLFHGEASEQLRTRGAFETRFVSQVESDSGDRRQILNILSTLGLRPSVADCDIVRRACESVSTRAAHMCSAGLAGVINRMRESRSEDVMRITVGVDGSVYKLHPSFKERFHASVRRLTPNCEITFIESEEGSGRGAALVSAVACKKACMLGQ
- MEASUREMENT_PROTOCOL: Glucokinase activation, mouse GK
OBSERVABLE: pEC50
One number for each entry, as −log10 of the molar value.

Output measured pEC50 for this item: CC[C@@H](COC)Oc1cc(Oc2ccc(S(C)(=O)=O)nc2)cc(C(=O)Nc2nc(CP3(=O)OCCCO3)cs2)c1 [Example 1]
7.43

###

- TARGET_OF_ASSAY: UniProtKB P05177
- Sequence (P05177 whole entry): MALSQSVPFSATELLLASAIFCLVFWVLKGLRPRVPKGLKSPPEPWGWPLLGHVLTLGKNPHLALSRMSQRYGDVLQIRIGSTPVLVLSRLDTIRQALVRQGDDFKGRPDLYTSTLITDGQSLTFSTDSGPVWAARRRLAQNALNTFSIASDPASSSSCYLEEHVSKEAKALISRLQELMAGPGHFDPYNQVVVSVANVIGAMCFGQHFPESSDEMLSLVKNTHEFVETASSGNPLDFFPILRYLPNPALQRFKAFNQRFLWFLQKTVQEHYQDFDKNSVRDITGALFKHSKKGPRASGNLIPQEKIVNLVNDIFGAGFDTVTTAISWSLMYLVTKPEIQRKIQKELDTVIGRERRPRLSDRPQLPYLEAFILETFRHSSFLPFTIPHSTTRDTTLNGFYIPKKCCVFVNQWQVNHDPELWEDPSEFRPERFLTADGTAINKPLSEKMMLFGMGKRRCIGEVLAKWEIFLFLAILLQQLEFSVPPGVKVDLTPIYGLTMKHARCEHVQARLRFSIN
OBSERVABLE: IC50

For the compound CC[C@@H](COC)Oc1cc(Oc2ccc(S(C)(=O)=O)nc2)cc(C(=O)Nc2nc(CP3(=O)OCCCO3)cs2)c1 [Example 1] , give its reported IC50.
> 40 µM

###

- MEASUREMENT_PROTOCOL: Pharmacokinetic study in mice (plasma and liver)
- Assay type: in vivo
- EXPERIMENTAL_CONDITIONS: male, C57BL/6J, mouse, liver/plasma, po, 10 mg/kg, C57/B16J mice, 10 mg/kg oral; read-out: Liver/Plasma ratio
OBSERVABLE: Kp at 1 h

Using known records, supply Kp at 1 h for `CC[C@@H](COC)Oc1cc(Oc2ccc(S(C)(=O)=O)nc2)cc(C(=O)Nc2nc(CP3(=O)OCCCO3)cs2)c1`
~39

###

- MEASUREMENT_PROTOCOL: Pharmacokinetic study in mice (plasma and liver)
- Assay type: in vivo
- EXPERIMENTAL_CONDITIONS: male, C57BL/6J, mouse, plasma; C57/B16J mice, 10 mg/kg oral, 2 hr post dose
OBSERVABLE: concentration at 2 h (nM)
Numbers only, in nM.

Identify measured concentration at 2 h corresponding to `CC[C@@H](COC)Oc1cc(Oc2ccc(S(C)(=O)=O)nc2)cc(C(=O)Nc2nc(CP3(=O)OCCCO3)cs2)c1`
398
